# Target: hACC2 (Homo sapiens)
# Construct: delete amino acids 1-148 and add Met-Gly in front of Lys149 in the final product; His tag (C)
# Sequence (O00763 149-2458 limits assumed): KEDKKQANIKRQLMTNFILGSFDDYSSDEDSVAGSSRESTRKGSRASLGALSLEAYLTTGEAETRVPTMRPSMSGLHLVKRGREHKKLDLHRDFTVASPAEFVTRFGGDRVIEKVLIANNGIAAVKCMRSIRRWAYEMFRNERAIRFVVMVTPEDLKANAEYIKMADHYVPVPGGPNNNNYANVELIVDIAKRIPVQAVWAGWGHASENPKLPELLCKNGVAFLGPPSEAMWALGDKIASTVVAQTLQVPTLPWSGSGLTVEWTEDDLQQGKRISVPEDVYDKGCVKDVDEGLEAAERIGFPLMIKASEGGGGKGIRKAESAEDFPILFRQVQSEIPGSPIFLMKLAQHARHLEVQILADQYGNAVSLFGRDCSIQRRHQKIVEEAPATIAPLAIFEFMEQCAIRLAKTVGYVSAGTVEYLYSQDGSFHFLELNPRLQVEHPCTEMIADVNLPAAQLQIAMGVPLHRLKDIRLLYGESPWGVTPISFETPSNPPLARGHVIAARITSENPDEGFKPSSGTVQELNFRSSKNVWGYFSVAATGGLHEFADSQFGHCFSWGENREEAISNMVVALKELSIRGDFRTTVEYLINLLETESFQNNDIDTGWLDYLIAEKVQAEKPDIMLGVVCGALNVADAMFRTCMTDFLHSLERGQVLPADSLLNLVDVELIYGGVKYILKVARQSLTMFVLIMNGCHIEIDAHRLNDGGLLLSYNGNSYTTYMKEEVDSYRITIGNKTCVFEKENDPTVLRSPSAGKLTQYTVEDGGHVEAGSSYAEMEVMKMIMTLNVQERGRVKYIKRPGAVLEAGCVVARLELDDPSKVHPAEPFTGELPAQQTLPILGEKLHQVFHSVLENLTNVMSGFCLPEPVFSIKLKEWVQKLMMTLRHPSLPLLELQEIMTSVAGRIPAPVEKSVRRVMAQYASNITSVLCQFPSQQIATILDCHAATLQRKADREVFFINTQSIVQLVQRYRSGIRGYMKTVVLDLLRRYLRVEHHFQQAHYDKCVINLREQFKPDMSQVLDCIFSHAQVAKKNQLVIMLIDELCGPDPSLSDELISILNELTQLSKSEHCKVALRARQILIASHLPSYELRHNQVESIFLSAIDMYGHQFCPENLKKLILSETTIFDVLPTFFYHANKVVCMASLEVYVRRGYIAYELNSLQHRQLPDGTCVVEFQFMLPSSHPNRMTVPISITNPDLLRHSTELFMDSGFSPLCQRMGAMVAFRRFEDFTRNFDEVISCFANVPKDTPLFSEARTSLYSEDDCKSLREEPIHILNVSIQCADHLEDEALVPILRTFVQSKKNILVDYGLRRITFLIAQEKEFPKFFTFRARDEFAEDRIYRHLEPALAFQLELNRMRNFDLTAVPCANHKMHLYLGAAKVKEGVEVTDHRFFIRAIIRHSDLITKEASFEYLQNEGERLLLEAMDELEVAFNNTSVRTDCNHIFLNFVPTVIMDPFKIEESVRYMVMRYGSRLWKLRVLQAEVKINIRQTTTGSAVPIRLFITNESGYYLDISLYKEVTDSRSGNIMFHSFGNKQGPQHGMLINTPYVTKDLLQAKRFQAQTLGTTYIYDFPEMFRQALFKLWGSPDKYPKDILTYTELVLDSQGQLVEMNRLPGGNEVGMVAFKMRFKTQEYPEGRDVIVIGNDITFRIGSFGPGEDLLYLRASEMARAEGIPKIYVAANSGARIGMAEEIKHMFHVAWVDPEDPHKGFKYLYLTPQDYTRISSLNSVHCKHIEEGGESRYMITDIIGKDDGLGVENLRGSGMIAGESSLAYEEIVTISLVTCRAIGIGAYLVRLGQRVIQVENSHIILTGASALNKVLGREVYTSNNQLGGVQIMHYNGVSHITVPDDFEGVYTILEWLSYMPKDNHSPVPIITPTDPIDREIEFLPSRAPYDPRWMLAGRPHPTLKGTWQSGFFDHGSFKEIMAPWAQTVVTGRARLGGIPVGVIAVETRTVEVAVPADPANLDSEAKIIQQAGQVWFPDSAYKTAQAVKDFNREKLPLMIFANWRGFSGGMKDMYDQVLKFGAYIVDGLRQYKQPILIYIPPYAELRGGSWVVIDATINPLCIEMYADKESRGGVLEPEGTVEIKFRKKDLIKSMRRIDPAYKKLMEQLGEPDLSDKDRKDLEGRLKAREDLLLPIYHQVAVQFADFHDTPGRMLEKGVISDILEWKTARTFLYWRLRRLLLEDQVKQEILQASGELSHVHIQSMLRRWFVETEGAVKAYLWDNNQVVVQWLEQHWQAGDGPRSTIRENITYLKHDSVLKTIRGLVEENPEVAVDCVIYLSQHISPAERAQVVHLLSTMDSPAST
# Measurement notes: [14C]bicarbonate incorporation assay, overall ACC activity
# Condition context: recombinant hACC2, overall ACC activity
# Protocol: In vitro IC50 values of human ACC were determined using recombinant enzyme produced by standard procedures. For example, full-length cDNAs for both the human isoforms (hACC1 and hACC2) were each cloned and expressed as a recombinant protein using a baculovirus system. Double stranded cDNA from human fetal liver (Quick-Clone cDNA, cat. #7171-1) was purchased from BD/Clontech (Mt. View, Calif.). […]
Threshold 900 nM: IC50 strictly smaller gives Met, otherwise Not met.

Check out these entries, answers already filled in.
For O=C1NC2(CCN(C(=O)c3ccc4[nH]nnc4c3)CC2)Oc2ccc(Br)cc21 [Compound 110] , is the recorded IC50 below the cut-off of 900 nM?
Not met

Record COc1cc(C(=O)N2CCC3(CC2)NC(=O)c2cc4ccccc4cc2O3)nc2c(SC)cccc12 [Compound 158] : is its IC50 strictly below 900 nM?
Met

Confirm or reject: IC50 of O=C1NC2(CCN(C(=O)c3cccc(-c4cc[nH]n4)c3)CC2)Oc2ccc(Br)cc21 [Compound 103] lies strictly below 900 nM
Met

Next:
Hello, I'm reviewing records and need to know if IC50 of Cn1nccc1-c1cccc(C(=O)N2CCC3(CC2)NC(=O)c2cc(Br)ccc2O3)c1 [Compound 141] is below 900 nM. Could you check?
Not met

Determine if COc1cccc2c(C)c(C(=O)N3CCC4(CC3)NC(=O)c3cc(Br)ccc3O4)[nH]c12 [Compound 23] shows IC50 strictly lower than 900 nM.
Met

In the record for COc1cccc2c(C)c(C(=O)N3CCC4(CC3)NC(=O)c3cc(NC(C)=O)ccc3O4)[nH]c12 [Compound 24] , is IC50 less than 900 nM?
Met

---

# Target: hACC1 (Homo sapiens)
# Construct: PCR primers were designed for full-length hACC1 and hACC2 using GenBank submissions AY237919 and AJ575592, respectively; His tag (C)
# Measurement notes: [14C]bicarbonate incorporation assay, overall ACC activity
# Condition context: recombinant hACC1, overall ACC activity
pIC50: −log10 of the molar value.
Would you mind labelling by pIC50? At or over 7 is true (1), under is false (0).

Reported pIC50 at or above 7? Cc1c(C(=O)N2CCC3(CC2)NC(=O)c2ccccc2O3)[nH]c2ccc(F)cc12 [Compound 6]
false (0)

Kindly determine if pIC50 recorded for CCOc1ccc2c(c1)C(=O)NC1(CCN(C(=O)c3cc(OC)c4cccc(OC)c4n3)CC1)O2 [Compound 139] is above or exactly 7.
true (1)

Dear colleague, could you confirm whether COc1ccc(OC)c2[nH]c(C(=O)N3CCC4(CC3)NC(=O)c3cc(OC(C)C)ccc3O4)cc12 [Compound 184] has pIC50 at or above 7?
false (0)

Form field: pIC50 at least 7? Entry: CCOc1ccc2c(c1)C(=O)NC1(CCN(C(=O)c3cc(OC)c4cccc(SC)c4c3)CC1)O2 [Compound 176]
true (1)

Determine whether measured pIC50 meets or exceeds 7 for O=C1NC2(CCN(C(=O)c3cccc(-c4cc[nH]n4)c3)CC2)Oc2ccc(Br)cc21 [Compound 103]
false (0)

Continuing:
Answer whether pIC50 of COc1cc2c(OC)cccc2cc1C(=O)N1CCC2(CC1)Oc1ccc(Br)cc1C(=O)N2C [Compound 138] is greater than or equal to 7.
false (0)

Is the recorded value of pIC50 equal to or greater than 7 for this compound? COc1cc2c(OC)cccc2cc1C(=O)N1CCC2(CC1)NC(=O)c1cc(NC(C)=O)ccc1O2 [Compound 132]
false (0)

State whether the measured pIC50 reaches 7, counting equality as reaching it, for COc1cc(C(=O)N2CCC3(CC2)NC(=O)c2cc(Br)ccc2O3)c(OC)c2ccccc12 [Compound 135]
false (0)

Check this compound for pIC50 at or above 7: COc1cc(C(=O)N2CCC3(CC2)NC(=O)c2cc(C)c(C)cc2O3)cc2c(OC)cccc12 [Compound 155]
true (1)

---

# System: PC-3 human prostate cancer cells
# Measurement notes: MTT Cell Proliferation Assay
# Format: cell-based
# Condition context: 10.0 uM, 72 hours, read-out: Percent of Control PC-3
Label Met for high-side activity at 10 µM (at or above 60%) and Not met for low-side activity at 10 µM (below it).

Here are 5 compounds together with their reported answers.
Textbook exercise: given the entry `COc1ccc2c(c1)C(=O)NC1(CCN(C(=O)c3[nH]c4c(OC)cccc4c3C)CC1)O2` , state whether its activity at 10 µM is greater than or equal to 60%.
Met

Has `COC(=O)c1ccc2c(c1)C(=O)NC1(CCN(C(=O)c3cc(OC)c4cccc(OC)c4n3)CC1)O2` a recorded activity at 10 µM greater than or equal to 60%?
Not met

Quick check, activity at 10 µM >= 60%? `COc1ccc(OC)c2[nH]c(C(=O)N3CCC4(CC3)NC(=O)c3cc(OC(C)C)ccc3O4)cc12`
Met

Say whether `COc1cc(C(=O)N2CCC3(CC2)NC(=O)c2cc(OC(F)(F)F)ccc2O3)nc2c(OC)cccc12` shows activity at 10 µM of 60% or more.
Not met

Is the recorded value of activity at 10 µM equal to or greater than 60% for this compound? `COc1ccc2c(c1)C(=O)NC1(CCN(C(=O)c3cc(OC)c4cccc(OC)c4c3)CC1)N2`
Not met

Turning now to a further record.
Is the recorded value of activity at 10 µM equal to or greater than 60% for this compound? `COc1cccc2c(C)c(C(=O)N3CCC4(CC3)NC(=O)c3cc(OC(C)C)ccc3O4)[nH]c12`
Not met

---

# Target: hACC2 (Homo sapiens)
# Construct: delete amino acids 1-148 and add Met-Gly in front of Lys149 in the final product; His tag (C)
# Measurement notes: [14C]bicarbonate incorporation assay, overall ACC activity
# Condition context: recombinant hACC2, overall ACC activity
Decide using IC50 alone. Strictly below 70 nM: 1 (yes). Equal to or above 70 nM: 0 (no).

Sample answers from the record:
Please determine if COc1cc(C(=O)N2CCC3(CC2)NC(=O)c2cc(Br)ccc2O3)cc2c(OC)cccc12 [Compound 30] is below 70 nM in terms of IC50.
1 (yes)

Please determine if COc1cc(C(=O)N2CCC3(CC2)NC(=O)c2cc(C)c(C)cc2O3)cc2c(OC)cccc12 [Compound 155] is below 70 nM in terms of IC50.
1 (yes)

Does COc1ccc(-c2cc(C(=O)N3CCC4(CC3)NC(=O)c3ccccc3O4)n[nH]2)cc1 [Compound 87] have IC50 strictly under 70 nM?
0 (no)

hey, is IC50 for COc1cc(C(=O)N2CCC3(CC2)NC(=O)c2cc(NC(C)=O)ccc2O3)nc2c(OC)cccc12 [Compound 9] lower than 70 nM or not?
1 (yes)

Lab log: compare recorded IC50 with 70 nM; is it strictly lower for COc1cc(C(=O)N2CCC3(CC2)NC(=O)c2cc(Br)ccc2O3)nc2c(C3CC3)cccc12 [Compound 32] ?
0 (no)

Continuing:
For CCOc1ccc2c(c1)C(=O)NC1(CCN(C(=O)c3[nH]c4c(OC)cccc4c3C)CC1)O2 [Compound 144] , is the recorded IC50 below the cut-off of 70 nM?
0 (no)

Take the molecule COC(=O)c1ccc2c(c1)C(=O)NC1(CCN(C(=O)c3cc(OC)c4cccc(OC)c4n3)CC1)O2 [Compound 201] and say whether its IC50 is less than 70 nM.
1 (yes)

Just wondering, is IC50 of COc1cccc2c(C)c(C(=O)N3CCC4(CC3)NC(=O)c3cc(OC(C)C)ccc3O4)[nH]c12 [Compound 180] below 70 nM?
1 (yes)

Is IC50 of COc1cc(C(=O)N2CCC3(CC2)NC(=O)c2cc4ccccc4cc2O3)cc2c(OC)cccc12 [Compound 160] strictly below 70 nM?
1 (yes)

Just wondering, is IC50 of COc1cc(C(=O)N2CCC3(CC2)NC(=O)c2cc(NC(C)=O)ccc2O3)nc2c(SC)cccc12 [Compound 136] below 70 nM?
1 (yes)

Lab log: compare recorded IC50 with 70 nM; is it strictly lower for COc1ccc2cc3c(cc2c1)C(=O)NC1(CCN(C(=O)c2cc(OC)c4cccc(OC)c4n2)CC1)O3 [Compound 164] ?
1 (yes)

Please state whether IC50 is below 70 nM for Cc1nn(C)c2sc(C(=O)N3CCC4(CC3)NC(=O)c3cc(Br)ccc3O4)cc12 [Compound 4]
0 (no)

Quick check: does COc1cc(C(=O)N2CCC3(CC2)NC(=O)c2cc(C(C)C)ccc2O3)nc2c(OC)cccc12 [Compound 186] have IC50 under 70 nM?
1 (yes)

Could you please tell me whether IC50 recorded for COc1cc2c(OC)cccc2cc1C(=O)N1CCC2(CC1)NC(=O)c1cc(NC(C)=O)ccc1O2 [Compound 132] is less than 70 nM?
0 (no)

For this molecule, is IC50 lower than 70 nM? COc1cc(C(=O)N2CCC3(CC2)NC(=O)c2cc(-c4nnn[nH]4)ccc2O3)nc2c(OC)cccc12 [Compound 10]
1 (yes)

Is it true that IC50 reported for COc1cc(C(=O)N2CCC3(CC2)NC(=O)c2cc(N4CCOCC4)ccc2O3)nc2c(OC)cccc12 [Compound 196] is less than 70 nM?
1 (yes)

Dear reviewer, please state whether COc1cc(C(=O)N2CCC3(CC2)NC(=O)c2cc(NC(C)=O)ccc2O3)nc2c(C3CC3)cccc12 [Compound 33] has IC50 strictly beneath 70 nM.
1 (yes)

Consider COc1ccc2c(c1)C(=O)NC1(CCN(C(=O)c3[nH]c4c(OC)cccc4c3C)CC1)O2 [Compound 151] . Does its IC50 lie strictly below 70 nM?
0 (no)

Field: below-cutoff. Rule: recorded IC50 strictly less than 70 nM. Subject: COc1cc(C(=O)N2CCC3(CC2)NC(=O)c2cc(Br)ccc2N3)nc2c(OC)cccc12 [Compound 71]
0 (no)

Item COc1ccc2c(c1)C(=O)NC1(CCN(C(=O)c3cc(OC)c4cccc(OC)c4n3)CC1)O2 [Compound 150] : IC50 beneath 70 nM, strictly?
1 (yes)

Please check: IC50 for COc1cc2c(OC)cccc2cc1C(=O)N1CCC2(CC1)NC(=O)c1cc(Cl)ccc1O2 [Compound 131] , strictly under 70 nM or not?
0 (no)

IC50 under 70 nM? Item: COc1cc(C(=O)N2CCC3(CC2)NC(=O)c2cc(Br)ccc2N3)nc2c(C(C)C)cccc12 [Compound 91]
0 (no)

Dear reviewer, please state whether COc1ccc(OC)c2[nH]c(C(=O)N3CCC4(CC3)NC(=O)c3cc(Br)ccc3O4)cc12 [Compound 16] has IC50 strictly beneath 70 nM.
0 (no)

Decide: IC50 of COc1cc(C(=O)N2CCC3(CC2)NC(=O)c2cc(Br)ccc2O3)nc2c(OC)cccc12 [Compound 2] strictly below 70 nM?
1 (yes)

Hi there! Is IC50 for COc1cc(C(=O)N2CCC3(CC2)NC(=O)c2cc(C)c(C)cc2O3)nc2c(SC)cccc12 [Compound 154] below 70 nM, do you know?
1 (yes)

Criterion: IC50 strictly below 70 nM. Is it met by COc1cc(C(=O)N2CCC3(CC2)NC(=O)c2cc(OC(C)C)ccc2O3)nc2c(OC)cccc12 [Compound 169] ?
1 (yes)

Numbers sourced from patent US8110570B2.
